biological target: Caspase-1 (Homo sapiens, UniProt P29466); assay: Inhibition of human recombinant DTT-activated caspase-1 expressed in Escherichia coli using WEHD-AMC as substrate after 30 mins by fluorescence assay; settings: read-out: Ki(app)
Sequence (P29466 120-297 limits assumed): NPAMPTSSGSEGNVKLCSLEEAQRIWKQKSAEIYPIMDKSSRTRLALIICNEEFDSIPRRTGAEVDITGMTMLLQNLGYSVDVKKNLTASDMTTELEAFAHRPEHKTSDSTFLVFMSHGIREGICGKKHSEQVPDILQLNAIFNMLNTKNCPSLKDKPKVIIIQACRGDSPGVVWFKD
Sequence (P29466 317-404 limits assumed): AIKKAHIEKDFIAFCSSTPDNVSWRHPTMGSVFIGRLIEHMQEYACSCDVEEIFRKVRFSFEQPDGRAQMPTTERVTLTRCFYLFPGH
readout: pKi
Answers are plain numbers, as −log10 of the molar value.

// returns reported pKi for input `C[C@]12C=CC(=O)C=C1CC[C@@H]1C2=CC[C@]2(C)[C@@H](C(=O)CN3CCN(c4cc(N5CCCC5)nc(N5CCCC5)n4)CC3)CC[C@@H]12`
7.30

###

molecular target: Caspase-4 (Homo sapiens, UniProt P49662); experiment: Inhibition of human recombinant N-terminal His-tagged DTT-activated caspase-4 expressed in Escherichia coli using Ac-LEVD-AMC as substrate preincubated for 30 mins followed by substrate addition by fluorescence assay
Sequence (P49662 81-270 limits assumed): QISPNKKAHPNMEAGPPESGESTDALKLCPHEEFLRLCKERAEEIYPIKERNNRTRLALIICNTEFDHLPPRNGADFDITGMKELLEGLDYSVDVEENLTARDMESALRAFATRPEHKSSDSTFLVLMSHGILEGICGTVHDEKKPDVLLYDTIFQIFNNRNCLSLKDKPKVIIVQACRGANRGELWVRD
Sequence (P49662 290-377 limits assumed): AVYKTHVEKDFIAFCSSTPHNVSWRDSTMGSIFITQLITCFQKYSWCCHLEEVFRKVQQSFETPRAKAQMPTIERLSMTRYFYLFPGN
Checkbox rule: Ki lower than 300 nM = rule met; Ki not lower than 300 nM = rule not met.

smiles record	class name
O=C(c1ccccc1)c1ccc(CN2CCN(c3cc(N4CCCC4)nc(N4CCCC4)n3)CC2)cc1	rule met
c1cncc(CN2CCN(c3cc(N4CCCC4)nc(N4CCCC4)n3)CC2)c1	rule not met
c1cc(CN2CCN(c3cc(N4CCCC4)nc(N4CCCC4)n3)CC2)ccn1	rule not met
C[C@]12C=CC(=O)C=C1CC[C@@H]1C2=CC[C@]2(C)[C@@H](C(=O)CN3CCN(c4cc(N5CCCC5)nc(N5CCCC5)n4)CC3)CC[C@@H]12	rule not met
c1c(N2CCCC2)nc(N2CCCC2)nc1N1CCNCC1	rule met
COc1cc(CN2CCN(c3cc(N4CCCC4)nc(N4CCCC4)n3)CC2)cc(OC)c1	rule met

Consider `O=[N+]([O-])c1ccccc1CN1CCN(c2cc(N3CCCC3)nc(N3CCCC3)n2)CC1` . Does its Ki lie strictly below 300 nM?
rule met

Consider `O=[N+]([O-])c1ccc(CN2CCN(c3cc(N4CCCC4)nc(N4CCCC4)n3)CC2)cc1` . Does its Ki lie strictly below 300 nM?
rule met
